- Target or test system: GST-CLK1cat (amino acids 141–484 of human CLK1) (Homo sapiens, UniProt P49759)
- Construct: containing amino acids 141–484 of human CLK1; made in house; host or cells: E. coli
- Sequence (P49759 141-484): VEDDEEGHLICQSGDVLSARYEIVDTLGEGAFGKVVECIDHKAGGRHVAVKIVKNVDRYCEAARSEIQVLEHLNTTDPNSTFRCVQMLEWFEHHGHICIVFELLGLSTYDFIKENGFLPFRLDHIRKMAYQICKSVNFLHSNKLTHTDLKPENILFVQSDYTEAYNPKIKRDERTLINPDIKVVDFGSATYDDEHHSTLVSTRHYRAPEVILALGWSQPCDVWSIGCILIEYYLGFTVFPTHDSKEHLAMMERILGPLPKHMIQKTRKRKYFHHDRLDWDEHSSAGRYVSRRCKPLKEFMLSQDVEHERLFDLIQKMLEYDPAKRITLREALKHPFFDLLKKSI
- Assay explanation: Kinase-GLO luminescent assay of CLK1 catalytic activity
- Type: biochemical
- Condition parameters: 1 µM inhibitor concentration; residual activity relative to control without inhibitor; read-out: CLK1 residual activity
Quantity: remaining activity at 1 µM (%)

> print(dat)
                                    molecule  comparative.sign  numeric.result
 1  Cc1nccc2c3ccc(Cl)c(Cl)c3n(CCCN(C)C)c12 [AnnH71]                 =              90
 2    COc1ccc2c(c1)C(=O)c1c-2ccnc1C [AnnHT2]                 =              54
 3  COc1ccc2c(c1)/C(=C\C#N)c1c-2ccnc1C [AnnHT5]                 =               7
 4  COc1ccc2c3ccnc(C)c3n(CC(=O)N(C)C)c2c1 [AnnH34]                 =              78
 5  COc1ccc2c(c1)[nH]c1c(C)cccc12 [AnnHOG3, 7-Methoxy-1-methyl-9H-carbazole]                 =              97
 6  COc1ccc2c3ccnc(C)c3n(C/C=C/c3ccccc3)c2c1 [AnnH22]                 =              15
 7  COc1ccc2c3ccnc(C)c3n(Cc3ccncc3)c2c1 [AnnH36]                 =              62
 8    CCCCn1c2cc(OC)ccc2c2ccnc(C)c21 [AnnH3]                 =              24
 9  Cc1nccc2c1[nH]c1cc(OCCN(C)C)ccc12 [AnnH62]                 =             100
10   COc1ccc2c(c1)[nH]c1c(Cl)nccc12 [AnnH24]                 =              17
11  COc1ccc2c3ccnc(C)c3n(CCN3CCCC3)c2c1 [AnnH55]                 =              85
12  COc1ccc2c3ccnc(C)c3n(CCN3CCCCC3)c2c1 [AnnH57]                 =              78
13   COc1ccc2c3c([nH]c2c1)C(=O)NCC3 [AnnH19]                 >              90
14  COc1ccc2c3ccnc(C)c3n(CC(=O)OC(C)C)c2c1 [AnnH27]                 =              79
15  CCOC(=O)Cn1c2cc(OC)ccc2c2ccnc(C)c21 [AnnH12]                 =              45
16  CCc1nccc2c1[nH]c1cc(OC)ccc12 [AnnH89, 1-Ethyl-7-methoxy-9H-pyrido[3,4-b]indole]                 =               7
17  COc1ccc2c3ccnc(C)c3n(CCC#N)c2c1 [AnnH42]                 =              44
18   COc1ccc2c3ccnc(C)c3n(CC#N)c2c1 [AnnH31]                 =              11
19  CCCCn1c2c(C)nccc2c2ccc(OC)c(Cl)c21 [AnnH11]                 =              60
20  Clc1ccc2c([nH]c3c(Br)nccc32)c1Cl [AnnH52]                 =              45
21  N#CCn1c2c(Br)nccc2c2ccc(Cl)c(Cl)c21 [AnnH79]                 =              88
22       COc1ccc2c3ccnc(C)c3n(C)c2c1 [AnnH1]                 =               6
